system: MEF with wild-type CHOP; assay: Proliferation / cytotoxicity (ATPLite) in MEF with wild-type CHOP; assay type: cell-based, mouse; conditions: read-out: CHOP wild-type EC50 (MEF)
pEC50: −log10 of the molar value.
measured quantity: pEC50

# pEC50 of O=C(Nc1ccc(S(=O)(=O)N2CCC(Cl)CC2)cc1)c1ccc([N+](=O)[O-])o1 [ML291] = ~5.32

###

test system: IRE1/XBP1 (adaptive) UPR sub-pathway; assay: UPR XBP1 assay (CHO-XBP1-luciferase reporter cell line); type: cell-based; details: Table 9; average of four runs; F12 HAMs, 10% hi-FBS; read-out: EC50 UPR XBP1 Assay
pEC50: −log10 of the molar value.
In this section, each of the molecules is paired with its reported pEC50.

CC1CCN(S(=O)(=O)c2ccc(NC(=O)c3ccc([N+](=O)[O-])o3)cc2)CC1 ... < 4.10
O=C(Nc1ccc(S(=O)(=O)N2CCC(Cl)CC2)cc1)c1ccc([N+](=O)[O-])o1 ... < 4.10
CC1(C)CCN(S(=O)(=O)c2ccc(NC(=O)c3ccc([N+](=O)[O-])o3)cc2)CC1 ... < 4.10
O=C(Nc1ccc(S(=O)(=O)N2CCC(F)CC2)cc1)c1ccc([N+](=O)[O-])o1 ... < 4.10

Read the next record carefully.
Lookup result for CC(C)(C)C1CCN(S(=O)(=O)c2ccc(NC(=O)c3ccc([N+](=O)[O-])o3)cc2)CC1 ; measured pEC50: < 4.10

###

test system: IRE1/XBP1 (adaptive) UPR sub-pathway; assay: UPR XBP1 assay (CHO-XBP1-luciferase reporter cell line); assay type: cell-based; settings: Table 1; mean of replicates; AID602416; read-out: UPR XBP1 Assay Potency EC50
measured quantity: EC50

Item: O=C(Nc1ccc(S(=O)(=O)N2CCC(Cl)CC2)cc1)c1ccc([N+](=O)[O-])o1 [ML291] | EC50: > 80 µM

###

experiment: Plasma protein binding, mouse; type: in vitro ADME; details: plasma; Mouse, 10 μM; read-out: Plasma Protein Binding (% Bound) (converted)
measured quantity: fraction unbound at 10 µM
Response field accepts a number only; no unit should be typed.

The reported value for O=C(Nc1ccc(S(=O)(=O)N2CCC(Cl)CC2)cc1)c1ccc([N+](=O)[O-])o1 [ML291] in terms of fraction unbound at 10 µM is 0.157

###

tested on: PERK-eIF2α-CHOP (apoptotic) arm of the Unfolded Protein Response pathway; assay: UPR-CHOP primary assay (CHO-CHOP luciferase reporter); assay type: cell-based; settings: CHO-K1, text; read-out: EC50 in the CHO-K1 cell reporter assays (CHOP)
measured quantity: pEC50
Field pEC50 (float): negative decimal logarithm of the concentration in molar.

Per the records, this compound ( O=C(Nc1ccc(S(=O)(=O)N2CCC(Cl)CC2)cc1)c1ccc([N+](=O)[O-])o1 ) has pEC50 equal to 6.12

###

Assay: Plasma protein binding, mouse
Type: in vitro ADME
Conditions: plasma; Mouse, 1 μM; read-out: Plasma Protein Binding (% Bound) (converted)
From the text: Plasma protein binding is a measure of a drug's efficiency to bind to the proteins within blood plasma. The less bound a drug is, the more efficiently it can traverse cell membranes or diffuse. Highly plasma protein bound drugs are confined to the vascular space, thereby having a relatively low volume of distribution. In contrast, drugs that remain largely unbound in plasma are generally available for distribution to other organs and tissues. […]
measured quantity: fraction unbound at 1 µM

Note to self: fraction unbound at 1 µM recorded for O=C(Nc1ccc(S(=O)(=O)N2CCC(Cl)CC2)cc1)c1ccc([N+](=O)[O-])o1 was 0.155

###

experiment: Plasma protein binding, human; format: in vitro ADME; details: plasma; Human, 1 μM; read-out: Plasma Protein Binding (% Bound) (converted)
measured quantity: fraction unbound at 1 µM
Answer field: number only, no words.

Briefly, fraction unbound at 1 µM measured for O=C(Nc1ccc(S(=O)(=O)N2CCC(Cl)CC2)cc1)c1ccc([N+](=O)[O-])o1 [ML291] : 0.0025

###

system: A253; test: Proliferation, A253; type: cell-based; details: Homo sapiens, 24 hours, average of three experiments
measured quantity: IC50 (µM)
Reply numerically in µM, unit not repeated.

Value sought: IC50, system A253, item O=C(Nc1ccc(S(=O)(=O)N2CCC(Cl)CC2)cc1)c1ccc([N+](=O)[O-])o1 . Result: 17.2

###

test system: PERK-eIF2α-CHOP (apoptotic) arm of the Unfolded Protein Response pathway; test: UPR-CHOP primary assay (CHO-CHOP luciferase reporter); format: cell-based; settings: Table 9; average of four runs; F12 HAMs, 10% hi-FBS; read-out: EC50 UPR CHOP Assay
Here the recorded pEC50 is given for each entry.
Please report pEC50 as the negative decimal logarithm of the molar concentration, giving only the number.

CC1CCN(S(=O)(=O)c2ccc(NC(=O)c3ccc([N+](=O)[O-])o3)cc2)CC1 [Analog 1] ... 6.12
CC1(C)CCN(S(=O)(=O)c2ccc(NC(=O)c3ccc([N+](=O)[O-])o3)cc2)CC1 [Analog 5] ... 6.11
CC(C)(C)C1CCN(S(=O)(=O)c2ccc(NC(=O)c3ccc([N+](=O)[O-])o3)cc2)CC1 [Analog 4] ... 6.19
O=C(Nc1ccc(S(=O)(=O)N2CCC(Cl)CC2)cc1)c1ccc([N+](=O)[O-])o1 [ML291] ... 6.11

Now for another entry.
Lab note: molecule O=C(Nc1ccc(S(=O)(=O)N2CCC(F)CC2)cc1)c1ccc([N+](=O)[O-])o1 [Analog 3] tested on PERK-eIF2α-CHOP (apoptotic) arm of the Unfolded Protein Response pathway; recorded pEC50 was 6.37
